TARGET_SYSTEM: E. coli RelA (Escherichia coli)
Construct: made in house
ASSAY_PROCEDURE: Inhibition of RelA activated by programmed 'starved' ribosomal complexes containing deacylated A-site tRNAPhe
Assay type: biochemical
CONDITION_SUMMARY: 30 nM RelA, 0.5 μM 70S, 2 μM tRNAPhe, 2 μM tRNAiMet, 2 μM mRNA(MF), 100 μM ppGpp, 0.3 mM [3H]GDP, 1 mM ATP, 5 mM Mg2+; read-out: IC50, 70S(MF:tPhe)
ATTRIBUTE_MEASURED: pIC50
Keep in mind that pIC50 stands for -log10 of concentration in molar terms.

Request: State its pIC50 on E. coli RelA (Escherichia coli): Nc1nc2c(ncn2C2OC(COP(=O)(O)OCP(=O)(O)O)C(OP(=O)(O)OCP(=O)(O)O)C2O)c(=O)[nH]1 (centres unmarked)
Response: 4.39

Request: Would you mind doing Nc1nc2c(ncn2C2CCN(C(=O)P(=O)(O)O)CC2)c(=O)[nH]1 as well?
Response: 3.81

---

TARGET_SYSTEM: E. coli RelA (Escherichia coli, UniProt P0AG20)
Construct: made in house
Sequence (P0AG20 whole entry): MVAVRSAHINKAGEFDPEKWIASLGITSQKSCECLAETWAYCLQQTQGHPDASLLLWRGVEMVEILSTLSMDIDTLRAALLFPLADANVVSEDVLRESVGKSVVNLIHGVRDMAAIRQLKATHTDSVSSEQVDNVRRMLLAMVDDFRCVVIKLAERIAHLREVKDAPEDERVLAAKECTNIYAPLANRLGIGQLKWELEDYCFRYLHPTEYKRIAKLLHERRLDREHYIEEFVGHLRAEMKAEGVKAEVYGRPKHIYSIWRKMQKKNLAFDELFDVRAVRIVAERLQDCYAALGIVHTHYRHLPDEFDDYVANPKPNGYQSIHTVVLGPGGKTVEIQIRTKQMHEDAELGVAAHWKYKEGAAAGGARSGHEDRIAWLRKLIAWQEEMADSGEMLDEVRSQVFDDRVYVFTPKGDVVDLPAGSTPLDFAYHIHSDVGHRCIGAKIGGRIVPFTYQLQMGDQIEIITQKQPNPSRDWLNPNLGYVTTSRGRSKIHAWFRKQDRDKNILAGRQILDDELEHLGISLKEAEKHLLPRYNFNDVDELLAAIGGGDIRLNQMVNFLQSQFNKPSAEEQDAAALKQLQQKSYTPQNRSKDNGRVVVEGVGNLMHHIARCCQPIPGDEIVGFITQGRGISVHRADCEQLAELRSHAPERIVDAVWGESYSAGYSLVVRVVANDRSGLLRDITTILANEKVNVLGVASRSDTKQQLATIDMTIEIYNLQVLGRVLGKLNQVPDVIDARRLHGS
ASSAY_PROCEDURE: Inhibition of [3H]GDP to [3H]ppGpp conversion by E. coli RelA activated by vacant 70S ribosomes and 100 μM ppGpp
Assay type: biochemical
CONDITION_SUMMARY: 30 nM RelA, 0.5 μM vacant 70S, 100 μM ppGpp, 5 mM Mg2+, 37 °C; no unit beside the value, titration axis in mM; read-out: IC50 (Supplementary Table 1, example titration)
I'd appreciate it if you marked entries Satisfied when IC50 is lower than 0.1 mM and Not satisfied when it is not.

Request: Below 0.1 mM on IC50? Entry Nc1ncnc2c1ncn2C1CCN(C(=O)P(=O)(O)O)CC1 [DR-5994A]
Response: Not satisfied

Request: How about Nc1nc2c(ncn2C2CCN(C(=O)CP(=O)(O)O)CC2)c(=O)[nH]1 ?
Response: Not satisfied

Request: Please do the same for Nc1nc2c(ncn2CCNC(=O)P(=O)(O)O)c(=O)[nH]1 as well.
Response: Not satisfied

Request: // same read-out, input: Nc1nc2c(ncn2C2OC(COP(=O)(O)OCP(=O)(O)O)C(OP(=O)(O)OCP(=O)(O)O)C2O)c(=O)[nH]1 (stereo not shown)
Response: Satisfied

Request: Continue with Nc1nc2c(ncn2C2CCN(C(=O)P(=O)(O)O)CC2)c(=O)[nH]1
Response: Not satisfied

---

TARGET_SYSTEM: E. faecalis SAS RelQ (RelQEf) (Enterococcus faecalis, UniProt Q830U9)
Sequence (Q830U9 entry or part of it): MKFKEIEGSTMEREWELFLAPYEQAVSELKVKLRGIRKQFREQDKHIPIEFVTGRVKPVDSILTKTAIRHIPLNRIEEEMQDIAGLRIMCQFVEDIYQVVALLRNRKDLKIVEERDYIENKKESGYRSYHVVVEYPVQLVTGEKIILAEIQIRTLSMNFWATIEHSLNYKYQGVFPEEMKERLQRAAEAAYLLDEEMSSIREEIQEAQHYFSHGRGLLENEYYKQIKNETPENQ
ATTRIBUTE_MEASURED: IC50 (µM)
Express it in µM; write the number only.

Request: Please provide the recorded IC50 for Nc1nc2c(ncn2C2OC(COP(=O)(O)OCP(=O)(O)O)C(OP(=O)(O)OCP(=O)(O)O)C2O)c(=O)[nH]1 (stereo not shown) [DR-4250] , tested on E. faecalis SAS RelQ (RelQEf) (Enterococcus faecalis, UniProt Q830U9).
Response: 235

---

TARGET_SYSTEM: E. coli RelA (Escherichia coli, UniProt P0AG20)
Construct: made in house
ASSAY_PROCEDURE: Inhibition of [3H]GDP to [3H]ppGpp conversion by E. coli RelA activated by vacant 70S ribosomes and 100 μM ppGpp
Type: biochemical
CONDITION_SUMMARY: 30 nM RelA, 0.5 μM vacant 70S, 100 μM ppGpp, 5 mM Mg2+, 37 °C; no unit beside the value, titration axis in µM; read-out: IC50 (Supplementary Table 1, example titration)
ATTRIBUTE_MEASURED: IC50 (µM)
Kindly answer with a numeric value in µM, unit omitted.

Request: Entry Nc1nc2c(ncn2C2OC(COP(=O)(O)OP(=O)(O)O)C(OP(=O)(O)OP(=O)(O)O)C2O)c(=S)[nH]1 (stereo not shown) [6-thio-ppGpp, reference compound] has what IC50?
Response: 21.2

---

TARGET_SYSTEM: E. coli RelA (Escherichia coli, UniProt P0AG20)
Construct: made in house
ASSAY_PROCEDURE: Inhibition of [3H]GDP to [3H]ppGpp conversion by E. coli RelA activated by vacant 70S ribosomes and 100 μM ppGpp
Type: biochemical
CONDITION_SUMMARY: 30 nM RelA, 0.5 μM vacant 70S, 100 μM ppGpp, 0.3 mM [3H]GDP, 1 mM ATP; read-out: IC50
pIC50: −log10 of the molar value.
Class (by pIC50) -- low bin (below 3), mid bin (3 to below 4), high bin (4 or more)

Request: Lab note: which band did Nc1nc2c(ncn2C2CCN(C(=O)CP(=O)(O)O)CC2)c(=O)[nH]1 land in?
Response: mid bin

Request: Same question, Nc1nc2c(ncn2C2OC(COP(=O)(O)OP(=O)(O)O)C(OP(=O)(O)OP(=O)(O)O)C2O)c(=O)[nH]1 (stereo not drawn) [ppGpp, guanosine tetraphosphate] this time
Response: mid bin

Request: Queued: CC(C)OP(=O)(O)CN1CC[C@H](n2cnc3c(=O)[nH]c(N)nc32)C1
Response: low bin

Request: Query Nc1nc2c(ncn2[C@@H]2CCN(C(=O)P(=O)(O)O)C2)c(=O)[nH]1 [DR-5267B] next
Response: mid bin

Request: Check Nc1nc2c(ncn2[C@H]2CCN(C(=O)P(=O)(O)O)C2)c(=O)[nH]1 too.
Response: mid bin

Request: Subsequent entry: Nc1nc2c(ncn2CCNC(=O)P(=O)(O)O)c(=O)[nH]1
Response: mid bin

Request: Would you mind doing Nc1nc2c(ncn2C2OC(COP(=O)(O)OCP(=O)(O)O)C(OP(=O)(O)OCP(=O)(O)O)C2O)c(=O)[nH]1 (stereo not drawn) as well?
Response: high bin

Request: Would you kindly repeat that for Nc1nc2c(ncn2C2CC(OCP(=O)(O)O)C(COCP(=O)(O)O)O2)c(=O)[nH]1 (stereo not drawn) [DR-5799C] ?
Response: mid bin

Request: Nc1nc2c(ncn2CCNCC(=O)P(=O)(O)O)c(=O)[nH]1 , same question.
Response: low bin

Request: Moving on to the next compound: Nc1nc2c(ncn2C2OC(COP(=O)(O)OP(=O)(O)O)C(OP(=O)(O)OP(=O)(O)O)C2O)c(=S)[nH]1 (stereo not drawn) [6-thio-ppGpp, reference compound]
Response: high bin

Request: Proceed to Nc1ncnc2c1ncn2C1OC(COP(=O)(O)OP(=O)(O)O)C(OP(=O)(O)OP(=O)(O)O)C1O (stereo not drawn)
Response: high bin

Request: # repeat for Nc1nc2c(ncn2C2OC(COCP(=O)(O)O)C(OCP(=O)(O)O)C2O)c(=O)[nH]1 (stereo not drawn)
Response: high bin

---

TARGET_SYSTEM: E. coli RelA (Escherichia coli)
Construct: made in house
ASSAY_PROCEDURE: Inhibition of [3H]GDP to [3H]ppGpp conversion by E. coli RelA activated by vacant 70S ribosomes and 100 μM ppGpp
Type: biochemical
CONDITION_SUMMARY: Supplementary Table 1; 4-parameter logistic model
Decide using nHill (Hill coefficient of the titration fit): a value greater than or equal to 2 is label 1, a smaller one is label 0.

Request: Has CC(C)C(=O)Nc1nc2c(ncn2[C@@H]2O[C@H](COP(=O)(O)OCP(=O)(O)O)[C@@H](OP(=O)(O)OCP(=O)(O)O)[C@H]2OC2CCCCO2)c(=O)[nH]1 (some centres unmarked) a recorded nHill (Hill coefficient of the titration fit) greater than or equal to 2?
Response: label 0

Request: Again, but for Nc1nc2c(ncn2[C@@H]2CCN(C(=O)P(=O)(O)O)C2)c(=O)[nH]1 [DR-5267B]
Response: label 0

Request: Again, but for CC(C)C(=O)Nc1nc2c(ncn2C2OC(COP(=O)(O)OCP(=O)(O)O)C(OP(=O)(O)OCP(=O)(O)O)C2O)c(=O)[nH]1 (centres unmarked)
Response: label 1

Request: Same read-out for Nc1nc2c(ncn2C2CC(OCP(=O)(O)O)C(COCP(=O)(O)O)O2)c(=O)[nH]1 (centres unmarked) [DR-5799C] ?
Response: label 1

Request: Next compound: Nc1nc2c(ncn2[C@H]2CCN(C(=O)P(=O)(O)O)C2)c(=O)[nH]1
Response: label 0

Request: And the next one, Nc1nc2c(ncn2C2OC(COP(=O)(O)OP(=O)(O)O)C(OP(=O)(O)OP(=O)(O)O)C2O)c(=S)[nH]1 (centres unmarked) [6-thio-ppGpp, reference compound] ?
Response: label 0

Request: Now this one: Nc1nc2c(ncn2C2OC(COP(=O)(O)OCP(=O)(O)O)C(OP(=O)(O)OCP(=O)(O)O)C2O)c(=O)[nH]1 (centres unmarked)
Response: label 1

Request: Record: CC(C)C(=O)Nc1nc2c(ncn2[C@H]2C[C@H](OC(=O)NCC(=O)NCC(=O)O)[C@@H](COC(=O)NCC(=O)NCC(=O)O)O2)c(=O)[nH]1 [Relacin, reference compound]
Response: label 0

Request: Entry Nc1ncnc2c1ncn2C1OC(COP(=O)(O)OP(=O)(O)O)C(OP(=O)(O)OP(=O)(O)O)C1O (centres unmarked) please
Response: label 0

Request: One more compound: Nc1ncnc2c1ncn2C1CCN(C(=O)P(=O)(O)O)CC1 [DR-5994A]
Response: label 0

Request: Try the compound Nc1nc2c(ncn2C2CCN(C(=O)P(=O)(O)O)CC2)c(=O)[nH]1
Response: label 0

Request: Param item: Nc1nc2c(ncn2CCNC(=O)P(=O)(O)O)c(=O)[nH]1
Response: label 0

Request: Same for Nc1nc2c(ncn2C2OC(COCP(=O)(O)O)C(OCP(=O)(O)O)C2O)c(=O)[nH]1 (centres unmarked)
Response: label 0

Request: Also check Nc1nc2c(ncn2C2CCN(C(=O)CP(=O)(O)O)CC2)c(=O)[nH]1
Response: label 0
